Tested on: MDA-MB-468 breast
Assay: NCI-60 one-dose screen, 48 h
Settings: 10 µM
Compounds without any hit were thinned out: in the full panel of roughly 83,000, 20% have a hit. Active and inactive are the calls of the source. The calls were made as follows: active = growth percent below 10; inactive = the rest.
// one of YES = active, NO = inactive, no free text

Some solved cases for reference:
[[record]]
compound = "Cc1ccn2c(C(=O)c3ccccc3)cc(-c3cc(-c4ccc(N(C)C)cc4)c(C#N)c(N)n3)c2c1"
discrete_label = "NO"

[[record]]
compound = "O=c1cc(-c2ccccc2)oc2cc(OCCCNCc3ccccc3)cc(O)c12"
discrete_label = "YES"

[[record]]
compound = "Cc1cc(C)cc(Oc2cccc(-c3c(C)nnn3C3CCN(CCN(C)C)CC3)n2)c1"
discrete_label = "YES"

[[record]]
compound = "O=C1Nc2ccc(Cl)cc2/C1=C/c1cccc(OCc2ccccn2)c1"
discrete_label = "YES"

[[record]]
compound = "Cc1noc2c(Cc3ccc([N+](=O)[O-])cc3)nn(CC(=O)N/N=C/c3ccc(Br)cc3)c(=O)c12"
discrete_label = "NO"

[[record]]
compound = "COc1ccc(C(=O)Nc2ccc(-c3ccc4c(c3)NC(=O)/C4=C\\c3ccc[nH]3)cc2)cc1"
discrete_label = "YES"


Call for entry `O=C(Nc1cccc(-c2cn(-c3ccc4oc(=O)ccc4c3)nn2)c1)Nc1cc(C(F)(F)F)cc(C(F)(F)F)c1` :
YES

Call for entry `N#Cc1c(NC(=O)c2ccc(C(F)(F)F)c(Cl)c2)sc2c1CCC(=O)C2` :
YES
